# Test system: NCI-H322M lung
# Method notes: NCI-60 one-dose screen, 48 h
# Measurement setup: 10 µM unless noted
This is part of a sample that, as a whole, favours compounds with a hit. Of some 83,000 tested, about 20% had one in any assay. Activity calls are given as the source filed them. How the source made its calls: active means growth percent below 10; inactive means the rest.
Outcomes: Yes for active, No for inactive

compound="O=C1CSC(c2ccc(O)cc2)N1c1nnc(Cn2cnnc2)o1 (stereo not given)" label_class=No
compound=CC(=O)NCC(=O)Nc1ccc(-c2nnc3ccccn23)nc1.CC(=O)NCC(=O)Nc1ccc(-c2nnc3ccccn23)nc1.[Pt+2] label_class=No
compound=Cc1nn(Cc2ccccc2)cc1C(=O)Nc1sc2c(c1C(N)=O)CCC(=O)C2 label_class=No
compound=Cc1nc(Nc2cccc(NC(=O)Nc3ccc(Cl)cc3)c2)c2ccccc2n1 label_class=No
compound=CCCCn1c(=O)[nH]c(N)c(C(c2ccc(F)cc2)c2c(N)[nH]c(=O)n(CCCC)c2=O)c1=O label_class=No
compound=N=C(N)c1ccc(-c2ccc(-c3ccc(Cl)c(Cl)c3)o2)nc1 label_class=No
compound=CCCCOc1ccc(NC(=O)n2nc(N=NN(C)C)c3ccc(Cl)cc32)cc1 label_class=No
compound="O=[N+]([O-])c1ccccc1C(O)Cc1ccc2ccccc2n1 (stereo not given)" label_class=No
compound="O=C(/C=C/C12c3ccccc3C(c3ccccc31)C1C(=O)N(c3ccc(Cl)cc3)C(=O)C12)c1ccccn1 (stereo not given)" label_class=No
compound=Cc1[nH]c(-c2nc3ccccc3[nH]2)c(C)c1C(=O)N1CCc2sccc2C1 label_class=No
compound="COc1ccc(C2=NC(=O)NC2c2ccc(OC)cc2)cc1 (stereo not given)" label_class=No
compound=C=C1C(=O)O[C@H]2[C@H]1CC/C(Cn1cc(CNCCc3c[nH]c4ccc(Cl)cc34)nn1)=C\CC[C@@]1(C)O[C@@H]21 label_class=No
compound="O=C1CC(c2ccc3c(c2)OCO3)Nc2cc3c(cc21)OCO3 (stereo not given)" label_class=No
compound=Cc1nc(C)c(-c2nn3c(-c4cccc(F)c4)nnc3s2)s1 label_class=No
compound=O=C1/C(=C/c2ccccc2[N+](=O)[O-])COc2ccc(O)c(O)c21 label_class=No
compound=Cc1nc(Nc2ccc(S(=O)(=O)Nc3cc(C)on3)cc2)c2ccccc2n1 label_class=No
compound=Cc1nc2ccccc2c(/C=C/c2ccc(Cl)cc2)c1C(=O)/C=C/c1ccc(Cl)cc1 label_class=Yes
compound="CC(C)CCC[C@@H](C)[C@H]1CCC2C3=CCn4c(=O)ccc(=O)n4C3CC[C@@]21C (stereo not given in full)" label_class=Yes
compound=N#Cc1c(N)n2c(nc1=Nc1ccc(Cl)cc1)sc1cc(Cl)ccc12 label_class=No
compound=CCNCCNc1cc(-c2ccc(C#N)cc2)c(C#N)c2nc3ccccc3n12 label_class=No

###

# System: SK-OV-3 ovarian
# Method notes: NCI-60 one-dose screen, 48 h (100 = growth as untreated, 0 = no growth, -100 = all killed)
# Measurement setup: 10 µM unless noted
This is part of a sample that, as a whole, favours compounds with a hit. Of some 83,000 tested, about 20% had one in any assay. The source made the active and inactive calls. Rule for the calls: active = growth percent below 10; inactive = the rest.
Measured metric: growth

molecule=COC(=O)c1ccc2oc(NC(=O)c3ccc(N4CCOCC4)c([N+](=O)[O-])c3)nc2c1 target_of_assay="SK-OV-3 ovarian" test_result="89.8% (inactive)"
molecule=Cc1cc(C(c2ccccc2)c2ccccc2)ccc1NS(=O)(=O)c1ccccc1 target_of_assay="SK-OV-3 ovarian" test_result="109% (inactive)"
molecule=CN(C)c1ccc(/C=C/c2c(F)cccc2F)cc1 target_of_assay="SK-OV-3 ovarian" test_result="89.3% (inactive)"
molecule=COc1ccc(O)c(-c2cc(-c3ccccc3)c(C#N)c(=O)[nH]2)c1 target_of_assay="SK-OV-3 ovarian" test_result="92.6% (inactive)"
molecule=COc1ccc(/C(C)=C(\c2ccc(Cl)cc2)c2ccc(OCCN3CCCC3)cc2)cc1F target_of_assay="SK-OV-3 ovarian" test_result="58.6% (inactive)"
molecule=CC1(C)N=C(N)N=C(N)N1c1cccc(CN)c1 target_of_assay="SK-OV-3 ovarian" test_result="101% (inactive)"
molecule=c1ccc(-c2oc3ccccc3c2-c2ccccc2)cc1 target_of_assay="SK-OV-3 ovarian" test_result="101% (inactive)"
molecule=CCCNCC(=O)Nc1ccc(C(=O)OC(C)(C)CC)cc1 target_of_assay="SK-OV-3 ovarian" test_result="105% (inactive)"
molecule=CC(C)n1nc(C#Cc2cccc(NC(=O)c3cccc(C(F)(F)F)c3)c2)c2c(N)ncnc21 target_of_assay="SK-OV-3 ovarian" test_result="-51.6% (active)"
molecule=C(=C\c1nc2ccccc2[nH]1)/c1nc2ccccc2[nH]1 target_of_assay="SK-OV-3 ovarian" test_result="98.4% (inactive)"
molecule=Cc1cc(N(CCCNc2ccnc3cc(Cl)ccc23)Cc2ccccn2)nc(N2CCOCC2)n1 target_of_assay="SK-OV-3 ovarian" test_result="88.5% (inactive)"
molecule=CNC=O target_of_assay="SK-OV-3 ovarian" test_result="105% (inactive)"
molecule=O=[N+]([O-])c1cccc(/C=C/c2ccccn2)c1 target_of_assay="SK-OV-3 ovarian" test_result="94% (inactive)"
molecule=CN(C)c1cnccn1 target_of_assay="SK-OV-3 ovarian" test_result="90.9% (inactive)"
molecule=CCN(CC)CCOC(=O)N1c2ccccc2Sc2ccccc21 target_of_assay="SK-OV-3 ovarian" test_result="98% (inactive)"
molecule=O=S(=O)(Nc1ccsc1-c1nc(-c2ccccc2)no1)c1cc(Cl)cc(Cl)c1 target_of_assay="SK-OV-3 ovarian" test_result="83.3% (inactive)"
molecule=CCN(CC)CC(=O)Nc1cccc(C(=O)OC(C)C)c1 target_of_assay="SK-OV-3 ovarian" test_result="101% (inactive)"
molecule=Cc1nc(Nc2cccc(NC(=O)Nc3ccc(Cl)cc3)c2)c2ccccc2n1 target_of_assay="SK-OV-3 ovarian" test_result="97.8% (inactive)"
molecule="CC(C)OC(=O)OCOP(=O)(OCOC(=O)OC(C)C)C1CCCN(O)C1=O (configuration not stated)" target_of_assay="SK-OV-3 ovarian" test_result="5.92% (active)"
molecule=O=C(Nc1ccccn1)[C@H](O)[C@@H](O)C(=O)N1CCOCC1 target_of_assay="SK-OV-3 ovarian" test_result="105% (inactive)"
molecule="C=C(C)C1CCC(=C)C2CCC3(C)OC12/C=C(/COC(C)=O)CCC3O (configuration not stated)" target_of_assay="SK-OV-3 ovarian" test_result="119% (inactive)"
molecule=CCN(CC)CCCNC(=O)c1ccc(N)cc1O target_of_assay="SK-OV-3 ovarian" test_result="105% (inactive)"
molecule=CN(C)c1ccc2cc(-c3ccccc3F)c(N)nc2c1 target_of_assay="SK-OV-3 ovarian" test_result="28.9% (inactive)"
molecule=CCCCCCNC(=O)c1cc(NCc2cc(O)ccc2O)ccc1O target_of_assay="SK-OV-3 ovarian" test_result="74.5% (inactive)"
molecule="O=C1c2ccccc2C2(c3ccc(O)cc3)c3ccccc3Oc3cccc1c32 (configuration not stated)" target_of_assay="SK-OV-3 ovarian" test_result="25.7% (inactive)"
molecule=C=C1C(=O)O[C@H]2[C@H]1CC/C(COC(=O)/C=C\C(=O)NCc1ccc(Cn3c(=O)sn(-c4ccc(OC)cc4)c3=O)cc1)=C\CC[C@@]1(C)O[C@@H]21 target_of_assay="SK-OV-3 ovarian" test_result="61.4% (inactive)"
molecule=Cc1nc(Nc2ccc(NC(=S)Nc3ccccc3)cc2)c2ccccc2n1 target_of_assay="SK-OV-3 ovarian" test_result="107% (inactive)"
molecule=c1ccc2c(c1)nc(-n1ccnc1)c1nc3ccccc3n12 target_of_assay="SK-OV-3 ovarian" test_result="21.5% (inactive)"
molecule="CCOc1cc(C2C(Cl)C(=O)N2n2cnnc2)ccc1O (configuration not stated)" target_of_assay="SK-OV-3 ovarian" test_result="82.4% (inactive)"
molecule=COc1ccc(-c2cc(-c3ccc(Nc4nc(Nc5ccccc5)nc(Nc5ccc(Cl)cc5)n4)cc3)nc(N)n2)cc1 target_of_assay="SK-OV-3 ovarian" test_result="119% (inactive)"
molecule=NC(N)=N/N=C/CO target_of_assay="SK-OV-3 ovarian" test_result="102% (inactive)"
molecule=C[C@@H]1C(=O)N(C[C@@H](Cc2ccccc2)NC(=O)OCc2ccccc2)[C@]1(Cc1ccccc1)C(=O)OCc1ccccc1 target_of_assay="SK-OV-3 ovarian" test_result="54.5% (inactive)"
molecule=C[C@H]1[C@H]2C3=CC[C@@H]4[C@@]5(C)C/C(=C/c6ccncc6)C(=O)C(C)(C)[C@@H]5CC[C@@]4(C)[C@]3(C)CC[C@@]2(C(=O)N2CCN(C)CC2)CC[C@@H]1C target_of_assay="SK-OV-3 ovarian" test_result="82.9% (inactive)"
molecule=CCOC(=O)c1cnn2c(-c3ccc(Cl)cc3)nc(NCc3ccccc3)nc12 target_of_assay="SK-OV-3 ovarian" test_result="112% (inactive)"
molecule=COc1ccc(/C(C)=N/NS(=O)(=O)c2ccc(C)cc2)cc1OC target_of_assay="SK-OV-3 ovarian" test_result="86.8% (inactive)"
molecule=Cc1cc(Cc2cc(C)cc(C(C)(C)C)c2O)c(O)c(C(C)(C)C)c1 target_of_assay="SK-OV-3 ovarian" test_result="51.9% (inactive)"
molecule="CC(C)CCC[C@@H](C)[C@H]1CCC2C3=CCn4c(=O)ccc(=O)n4C3CC[C@@]21C (some centres not stated)" target_of_assay="SK-OV-3 ovarian" test_result="-100% (active)"
molecule=Fc1ccc(Nc2nc3nonc3nc2Nc2ccc(F)cc2)cc1 target_of_assay="SK-OV-3 ovarian" test_result="3.75% (active)"
molecule=C#CC[C@H](N)C(=O)O target_of_assay="SK-OV-3 ovarian" test_result="105% [20 µM] (inactive)"
molecule=COc1ccc(-c2cc(-c3ccc(Nc4nc(Nc5ccccc5)nc(Nc5ccc(Cl)cc5)n4)cc3)nc(N)c2C#N)cc1 target_of_assay="SK-OV-3 ovarian" test_result="86.8% (inactive)"
molecule=Cc1nc(Nc2ccc(NC(=S)Nc3ccccc3)cc2)nc2nc(SCc3ccccc3)[nH]c(=O)c12 target_of_assay="SK-OV-3 ovarian" test_result="109% (inactive)"
molecule="CN1C[C@@H](c2ccc(Cl)cc2)[C@]2(NC(=S)N(c3ccc(F)c(Cl)c3)C2=O)[C@@]12C(=O)NC1C=CC(Cl)=C[C@H]12 (some centres not stated)" target_of_assay="SK-OV-3 ovarian" test_result="80.7% (inactive)"

Entry source: PubChem BioAssay (NCI)
